Documented Sum of impurities (% HPLC area) across a set of compounds
# protocol.summary: Accelerated stability test at 80° C., impurities determined by HPLC
# Assay type: physicochemical
# particulars: solid sample kept at 80° C. for 7 days
The figure you give is taken to be in % HPLC area; do not add the unit.

Record excerpt, results attached:
CCOc1nc2cccc(C(=O)OC(C)OC(=O)OC3CCCCC3)c2n1Cc1ccc(-c2ccccc2-c2nnn[nH]2)cc1 (stereo not shown) [Form I + 10.0% of Form II, candesartan cilexetil] ... 12.78
CCOc1nc2cccc(C(=O)OC(C)OC(=O)OC3CCCCC3)c2n1Cc1ccc(-c2ccccc2-c2nnn[nH]2)cc1 (stereo not shown) [Form I (Example 2)] ... 0.34
CCOc1nc2cccc(C(=O)OC(C)OC(=O)OC3CCCCC3)c2n1Cc1ccc(-c2ccccc2-c2nnn[nH]2)cc1 (stereo not shown) [Form I + 0.5% of Form II, candesartan cilexetil] ... 1.46
CCOc1nc2cccc(C(=O)OC(C)OC(=O)OC3CCCCC3)c2n1Cc1ccc(-c2ccccc2-c2nnn[nH]2)cc1 (stereo not shown) [Form I + 2.0% of Form II, candesartan cilexetil] ... 2.88
CCOc1nc2cccc(C(=O)OC(C)OC(=O)OC3CCCCC3)c2n1Cc1ccc(-c2ccccc2-c2nnn[nH]2)cc1 (stereo not shown) [Form I + 5.0% of Form II, candesartan cilexetil] ... 6.65
CCOc1nc2cccc(C(=O)OC(C)OC(=O)OC3CCCCC3)c2n1Cc1ccc(-c2ccccc2-c2nnn[nH]2)cc1 (stereo not shown) [Form I + 1.0% of Form II, candesartan cilexetil] ... 2.00

Attention now shifts to the item below.
Exam item: Request the reported Sum of impurities (% HPLC area) associated with CCOc1nc2cccc(C(=O)OC(C)OC(=O)OC3CCCCC3)c2n1Cc1ccc(-c2ccccc2-c2nnn[nH]2)cc1 (stereo not shown) [Form I + 20.0% of Form II, candesartan cilexetil]
Marked response: 23.20
